molecular target: β-glucosidase from almonds; construct: native commercial enzyme preparation from almonds (Sigma-Aldrich); assay: initial rates by HPLC, product inhibition fit; conditions: competitive; substrate betuloside at saturating level; 0.1 M phosphate buffer pH 6, 40 °C
REPORTED ENDPOINT: pKi
Scale explanation: pKi corresponds to minus log10 of a concentration expressed in moles per litre.

Sure, the documented pKi for CC(O)CCc1ccc(O)cc1 (racemic) [rhododendrol] is 2.15

Sure, the documented pKi for OC[C@H]1OC(O)[C@H](O)[C@@H](O)[C@@H]1O (some centres unmarked) [glucose] is 1.18
